Source listed as patent US20220315908A1.

# System: four Gardnerella strains (Gv_9, Gv_11, Gv_17, Gv_23)
# assay-notes: CFU reduction averaged across the four Gardnerella strains, with activity ranks
# Assay type: cell-based
# conditions: rank 1-91, based on the data of Table 5B
# Method: The lysis activity on the four main species of Gardnerella of 91 constructs (natural and domain-swapped endolysins) was quantitatively assessed using the method described in Reference Example 2. […] The results are shown in FIGS. 8A to 8D together with Tables 5A to 5C. […] Each combination of the natural 10 H-domains and the natural 9 B-regions was assessed, including the natural endolysins (H1B1, H2B2, H3B3, etc.), plus H6B6. […] All conditions have been measured in triplicate. […]
assay-metric: activity rank of all endolysins
Simply state the number, no unit and no words.

{"molecule": "H7B7: natural Gardnerella prophage endolysin from strain AMD (protein, EL7_strain_AMD, natural Gardnerella prophage endolysin from strain AMD) MSKKGIDVSEWQGDIDFNAVKASGVEFVIIRAGYGIGCKDKWFEQNYRKAKTAGLDVGAYWYSYANSASEAAEEAQSCANMLSGKSFEYPVYFDLEEKSQLNRGRAFCDSLITSFCSKLETYGYYAGFYTSLSTANNLVSSHVRNRYALWIAQWNTHCSYQGSYGLWQYSSSGSVPGVAGRVDMDYAYKDYPSIIKNAGLNGCKNGGSDQAARTSSIDEVAREVINGAWGNGNERKQRLTQAGYDYTSVQNKVNKLLGVKACRKSVDELAREVIRGTWGNGNERKNRLTQAGYDYDTVQKRVNELL", "activity rank of all endolysins": 40}

Now turn to the next molecule.
Sure, the documented activity rank of all endolysins for H2B2: natural Gardnerella prophage endolysin from strain Gv18-4 (protein, EL2_strain_Gv18-4) MSKRGIDVSEWQGDIDFNAVKASGVEFVIIRAGYGIGCKDKWFEQNYRKAKTCGLDVGAYWYSYANSGFEAAEEAQSCVNMLSGKSFEYPVYFDLEEKSQLNRGRAFCDSLITGFCNKLESCGYYAGFYTSLSTANNLVSAHVRNRYALWIAQWNTHCSYQGSYGLWQYSSSGSVPGVAGRVDMDYAYVDYPSIIKNVGLNGCKNGGSDQAARTSSIDEVAREVINGAWGNGNERKQRLTSAGYDYASVQNKVNELLGVKACRKSVDEIAREVIRGTWGNGSTRKQRLTQAGYDYDTVQKRVNELL is 25
